All values here come from patent US20220177604A1.

target: T1, human immunoglobulin E (hIgE) (human, UniProt P01854-1 1-428); experiment: SPR (Biacore) on hIgE
T1 construct: also called human IgE; Native IgE (Abcam)
T1 sequence (P01854 whole entry): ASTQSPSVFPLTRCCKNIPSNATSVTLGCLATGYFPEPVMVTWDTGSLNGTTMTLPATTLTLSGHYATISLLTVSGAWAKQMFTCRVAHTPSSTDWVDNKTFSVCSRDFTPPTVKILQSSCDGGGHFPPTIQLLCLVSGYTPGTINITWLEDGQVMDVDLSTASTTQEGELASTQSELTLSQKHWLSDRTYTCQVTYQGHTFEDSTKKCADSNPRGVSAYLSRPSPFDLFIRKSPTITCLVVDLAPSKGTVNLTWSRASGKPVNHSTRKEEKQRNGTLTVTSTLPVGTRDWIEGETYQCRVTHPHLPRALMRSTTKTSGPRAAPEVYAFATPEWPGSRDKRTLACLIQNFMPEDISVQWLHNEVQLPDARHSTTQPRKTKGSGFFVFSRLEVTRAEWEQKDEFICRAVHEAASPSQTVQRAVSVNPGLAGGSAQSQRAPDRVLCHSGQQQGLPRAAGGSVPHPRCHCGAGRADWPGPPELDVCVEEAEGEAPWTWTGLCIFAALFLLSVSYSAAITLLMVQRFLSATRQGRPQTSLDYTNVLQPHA
measured-metric: KD Ratio pH 5.5/pH 7.4
Please reply with the number alone, leaving off any unit.

CL-2C mAb 15 (antibody, V domains shown, also called VK50H94H + VHWT) VH: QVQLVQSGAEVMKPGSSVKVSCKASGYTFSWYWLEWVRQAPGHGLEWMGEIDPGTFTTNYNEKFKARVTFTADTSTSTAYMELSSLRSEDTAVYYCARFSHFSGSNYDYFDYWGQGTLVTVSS VL: EIVMTQSPATLSVSPGERATLSCRASQSIGTNIHWYQQKPGQAPRLLIYHASESISGIPARFSGSGSGTEFTLTISSLQSEDFAVYYCQQSWSHPTTFGGGTKVEIK
1.1
CL-2C mAb 5 (antibody, V domains shown, also called VK28H94H + VHWT) VH: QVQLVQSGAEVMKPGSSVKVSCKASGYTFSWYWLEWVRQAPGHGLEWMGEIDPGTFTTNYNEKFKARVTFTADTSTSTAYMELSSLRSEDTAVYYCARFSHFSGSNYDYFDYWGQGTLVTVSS VL: EIVMTQSPATLSVSPGERATLSCRASQHIGTNIHWYQQKPGQAPRLLIYYASESISGIPARFSGSGSGTEFTLTISSLQSEDFAVYYCQQSWSHPTTFGGGTKVEIK
0.3
CL-2C mAb 26 (antibody, V domains shown, also called VK50H + VH58H100BH) VH: QVQLVQSGAEVMKPGSSVKVSCKASGYTFSWYWLEWVRQAPGHGLEWMGEIDPGTFTTHYNEKFKARVTFTADTSTSTAYMELSSLRSEDTAVYYCARFSHFSGSHYDYFDYWGQGTLVTVSS VL: EIVMTQSPATLSVSPGERATLSCRASQSIGTNIHWYQQKPGQAPRLLIYHASESISGIPARFSGSGSGTEFTLTISSLQSEDFAVYYCQQSWSWPTTFGGGTKVEIK
8.9
CL-2C mAb 4 (antibody, V domains shown, also called VK28H94H + VH33H100AH) VH: QVQLVQSGAEVMKPGSSVKVSCKASGYTFSWYHLEWVRQAPGHGLEWMGEIDPGTFTTNYNEKFKARVTFTADTSTSTAYMELSSLRSEDTAVYYCARFSHFSGHNYDYFDYWGQGTLVTVSS VL: EIVMTQSPATLSVSPGERATLSCRASQHIGTNIHWYQQKPGQAPRLLIYYASESISGIPARFSGSGSGTEFTLTISSLQSEDFAVYYCQQSWSHPTTFGGGTKVEIK
3.3
CL-2C mAb 36 (antibody, V domains shown, also called VKWT + VH58H100BH) VH: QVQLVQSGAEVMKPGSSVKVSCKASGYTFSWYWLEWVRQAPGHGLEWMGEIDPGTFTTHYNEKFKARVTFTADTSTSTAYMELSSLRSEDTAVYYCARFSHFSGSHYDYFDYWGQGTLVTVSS VL: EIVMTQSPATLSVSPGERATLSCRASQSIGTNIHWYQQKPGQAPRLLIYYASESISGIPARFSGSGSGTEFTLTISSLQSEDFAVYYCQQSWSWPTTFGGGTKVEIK
4.3

Using known records, supply KD Ratio pH 5.5/pH 7.4 for CL-2C mAb 17 (antibody, V domains shown, also called VK50H92D94H + VH33H100CH) VH: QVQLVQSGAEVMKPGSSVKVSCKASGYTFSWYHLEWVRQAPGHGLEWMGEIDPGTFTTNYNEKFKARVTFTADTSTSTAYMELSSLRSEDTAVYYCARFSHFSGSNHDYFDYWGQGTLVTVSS VL: EIVMTQSPATLSVSPGERATLSCRASQSIGTNIHWYQQKPGQAPRLLIYHASESISGIPARFSGSGSGTEFTLTISSLQSEDFAVYYCQQSDSHPTTFGGGTKVEIK
7.1

Please report the measured KD Ratio pH 5.5/pH 7.4 for CL-2C mAb 7 (antibody, V domains shown, also called VK50H92D89H + VH33H100CH) VH: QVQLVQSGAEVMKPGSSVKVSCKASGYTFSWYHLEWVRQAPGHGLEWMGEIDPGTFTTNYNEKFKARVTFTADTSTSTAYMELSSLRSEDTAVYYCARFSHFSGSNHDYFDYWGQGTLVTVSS VL: EIVMTQSPATLSVSPGERATLSCRASQSIGTNIHWYQQKPGQAPRLLIYHASESISGIPARFSGSGSGTEFTLTISSLQSEDFAVYYCHQSDSWPTTFGGGTKVEIK
7.9

Provide only the value of recorded KD Ratio pH 5.5/pH 7.4 for CL-2C mAb 33 (antibody, V domains shown, also called VK94H + VH33H100BH) VH: QVQLVQSGAEVMKPGSSVKVSCKASGYTFSWYHLEWVRQAPGHGLEWMGEIDPGTFTTNYNEKFKARVTFTADTSTSTAYMELSSLRSEDTAVYYCARFSHFSGSHYDYFDYWGQGTLVTVSS VL: EIVMTQSPATLSVSPGERATLSCRASQSIGTNIHWYQQKPGQAPRLLIYYASESISGIPARFSGSGSGTEFTLTISSLQSEDFAVYYCQQSWSHPTTFGGGTKVEIK
7

Give the value of KD Ratio pH 5.5/pH 7.4 reported for the following: CL-2C mAb 32 (antibody, V domains shown, also called VK94H + VH33H100CH) VH: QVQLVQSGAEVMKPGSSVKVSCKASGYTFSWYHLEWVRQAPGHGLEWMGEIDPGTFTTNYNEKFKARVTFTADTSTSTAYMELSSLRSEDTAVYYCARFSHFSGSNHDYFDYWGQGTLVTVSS VL: EIVMTQSPATLSVSPGERATLSCRASQSIGTNIHWYQQKPGQAPRLLIYYASESISGIPARFSGSGSGTEFTLTISSLQSEDFAVYYCQQSWSHPTTFGGGTKVEIK
6.2
